Listing of entries alongside the reported normalized growth.
Assay Method Text: chemical genetic growth profiling, strain panel (AID 1159580);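 also: tested at 20 µM; growth read once vehicle control cultures reached saturation at 30 °C; 1 = growth at the plate median or of vehicle wells; lower values mean less growth of the strain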
Assay Context: S. cerevisiae deletion strains, growth OD, locus YOR106W, strain vam3, active compounds read low
The whole screen tested about 5,500 compounds, of which about 2,000 (36%) were called active. Not shown: some 18% with an inconclusive outcome. Some of the results follow.
Just the number, please, no unit attached.

Known results for compounds:
CC(=O)OC(C)(C)[C@@H]1Cc2cc3ccc(=O)oc3cc2O1: 1.02
CC1=C(C(C)O)C2=NC1C=c1[nH]c(c(C)c1C(C)O)=Cc1[nH]c(c(CCC(=O)O)c1C)C=c1[nH]c(c(C)c1CCC(=O)O)=C2 (stereo not given): 0.94
CC1CC2C3CC(F)C4=CC(=O)C=CC4(C)C3(F)C(O)CC2(C)C1(O)C(=O)CO (stereo not given): 0.97
CN1CCC(=C2c3ccccc3CCc3sccc32)CC1: 0.889
CN1CCC(=C2c3ccccc3Sc3ccccc32)CC1: 0.966

normalized growth for CC1(C)OC(=O)NC1=O ?
1.03

Same question, CCOC(=O)CCC(=O)O[C@H]1[C@H](O[C@@H]2[C@@H](C)[C@H](O[C@H]3C[C@@](C)(OC)[C@@H](O)[C@H](C)O3)[C@@H](C)C(=O)O[C@H](CC)[C@@](C)(O)[C@H](O)[C@@H](C)C(=O)[C@H](C)C[C@@]2(C)O)O[C@H](C)C[C@@H]1N(C)C this time
0.989

Same question, C=Cc1c2[nH]c(c1C)C=c1[nH]c(c(C)c1C=C)=CC1N=C(C=c3[nH]c(c(C)c3CCC(=O)O)=C2)C(CCC(=O)O)=C1C (stereo not given) this time
0.951

Same question, CCOC(=O)C(Cc1ccc(O)cc1)NC(C)=O (stereo not given) this time
1.04

Same question, c1ccc(N=Nc2ccccc2)cc1 this time
0.987
